# Tested on: PPARa:RXRa (NR concentration 270 nM, RXRa partner concentration 90 nM)
# Experiment Description: PBM binding z-score (relative to random genomic background probes); higher = stronger binding; sequences stand for … in GC…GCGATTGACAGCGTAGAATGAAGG

Biopolymer Sequence: CCTTACGGGTCACGAGGGTATAGCACGACGAGCG
PBM binding z-score: 5.73

Biopolymer Sequence: TCTTGTACATCAATAGAGGTTAAGAAAGTGCGCT
PBM binding z-score: 1.82

Biopolymer Sequence: CCGACTGGCGCATAAGGTTACCATAAGCCAGCCC
PBM binding z-score: 0.659

Biopolymer Sequence: CCGCCTGGGGCAGAAAGGTTACCATACCATCCGG
PBM binding z-score: 1.59

Biopolymer Sequence: ATCCAAAGGTCGTGAGGTGAGTATACAGAAAGGC
PBM binding z-score: 5.37

Biopolymer Sequence: ACTATTAGTTGTCTTAGGGCAACCGATACGACGC
PBM binding z-score: -0.245

Biopolymer Sequence: CGACCTAGGTCATTGACAGGACAGTGAATAGTAA
PBM binding z-score: 4.18

Biopolymer Sequence: CATACAGGGTCAGCCAGGCCAGAGTAGGGACGGC
PBM binding z-score: 4.45

These entries and their values trace back to the supplement of paper PMC6555819.
